# assay-target: Sodium channel protein type 5 subunit alpha/beta-1/beta-2 (Homo sapiens)
# Sequence (Q14524 whole entry): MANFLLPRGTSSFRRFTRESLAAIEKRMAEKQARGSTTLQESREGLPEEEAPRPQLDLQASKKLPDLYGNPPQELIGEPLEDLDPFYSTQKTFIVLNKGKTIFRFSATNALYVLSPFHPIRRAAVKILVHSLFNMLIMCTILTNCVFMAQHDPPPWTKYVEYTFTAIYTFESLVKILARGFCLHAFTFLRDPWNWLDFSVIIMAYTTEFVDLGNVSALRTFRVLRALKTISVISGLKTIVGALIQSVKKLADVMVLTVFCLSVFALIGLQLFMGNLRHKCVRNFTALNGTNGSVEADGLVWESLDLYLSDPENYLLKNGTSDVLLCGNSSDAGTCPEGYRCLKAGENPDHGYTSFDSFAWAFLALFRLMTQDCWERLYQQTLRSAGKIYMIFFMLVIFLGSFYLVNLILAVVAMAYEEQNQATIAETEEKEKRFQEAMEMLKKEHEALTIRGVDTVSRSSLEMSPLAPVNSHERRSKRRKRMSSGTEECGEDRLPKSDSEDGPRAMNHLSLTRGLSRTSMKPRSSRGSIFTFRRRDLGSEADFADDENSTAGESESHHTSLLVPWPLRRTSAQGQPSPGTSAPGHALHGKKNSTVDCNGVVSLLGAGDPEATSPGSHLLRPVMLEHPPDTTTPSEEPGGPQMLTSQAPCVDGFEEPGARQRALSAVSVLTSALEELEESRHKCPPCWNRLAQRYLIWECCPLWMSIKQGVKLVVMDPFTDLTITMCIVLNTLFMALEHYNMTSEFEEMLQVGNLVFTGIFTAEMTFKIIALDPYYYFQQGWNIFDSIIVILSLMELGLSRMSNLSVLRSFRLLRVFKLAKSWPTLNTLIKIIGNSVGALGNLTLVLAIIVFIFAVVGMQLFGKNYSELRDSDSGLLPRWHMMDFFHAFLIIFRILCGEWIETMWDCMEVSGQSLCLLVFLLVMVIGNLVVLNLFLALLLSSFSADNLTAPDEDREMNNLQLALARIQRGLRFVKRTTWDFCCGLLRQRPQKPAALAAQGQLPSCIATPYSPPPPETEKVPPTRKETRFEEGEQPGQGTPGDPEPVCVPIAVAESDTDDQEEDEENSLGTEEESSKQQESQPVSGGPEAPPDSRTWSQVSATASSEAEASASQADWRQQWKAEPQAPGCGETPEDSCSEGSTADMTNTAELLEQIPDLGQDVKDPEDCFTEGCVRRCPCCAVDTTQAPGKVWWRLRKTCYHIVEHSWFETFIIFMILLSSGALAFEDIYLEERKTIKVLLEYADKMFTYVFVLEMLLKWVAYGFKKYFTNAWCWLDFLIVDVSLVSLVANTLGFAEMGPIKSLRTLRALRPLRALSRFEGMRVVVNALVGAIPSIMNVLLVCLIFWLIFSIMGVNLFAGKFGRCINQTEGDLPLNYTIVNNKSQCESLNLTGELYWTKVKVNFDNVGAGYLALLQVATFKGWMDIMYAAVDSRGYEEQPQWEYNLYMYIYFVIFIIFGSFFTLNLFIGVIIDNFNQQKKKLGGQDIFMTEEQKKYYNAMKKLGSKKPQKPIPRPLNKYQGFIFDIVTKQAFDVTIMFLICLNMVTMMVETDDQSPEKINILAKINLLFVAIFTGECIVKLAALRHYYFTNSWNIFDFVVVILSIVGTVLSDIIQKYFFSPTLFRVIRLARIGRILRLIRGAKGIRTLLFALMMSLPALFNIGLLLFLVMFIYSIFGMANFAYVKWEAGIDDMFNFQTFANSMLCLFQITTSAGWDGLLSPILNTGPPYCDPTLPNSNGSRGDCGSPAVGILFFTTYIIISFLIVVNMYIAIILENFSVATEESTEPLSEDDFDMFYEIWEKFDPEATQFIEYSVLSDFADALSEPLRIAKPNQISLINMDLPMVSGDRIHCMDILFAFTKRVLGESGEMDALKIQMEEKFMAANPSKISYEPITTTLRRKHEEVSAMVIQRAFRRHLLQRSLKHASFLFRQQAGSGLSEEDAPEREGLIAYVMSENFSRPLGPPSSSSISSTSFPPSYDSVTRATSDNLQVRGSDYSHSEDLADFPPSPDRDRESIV
# Sequence (O60939 whole entry, further chain): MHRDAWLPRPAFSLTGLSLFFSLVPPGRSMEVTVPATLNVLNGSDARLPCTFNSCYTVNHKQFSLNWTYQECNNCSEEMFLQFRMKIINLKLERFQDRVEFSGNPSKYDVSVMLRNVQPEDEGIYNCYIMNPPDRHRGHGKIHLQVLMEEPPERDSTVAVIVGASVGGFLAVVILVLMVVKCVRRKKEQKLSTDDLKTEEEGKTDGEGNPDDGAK
# Sequence (Q07699 whole entry, further chain): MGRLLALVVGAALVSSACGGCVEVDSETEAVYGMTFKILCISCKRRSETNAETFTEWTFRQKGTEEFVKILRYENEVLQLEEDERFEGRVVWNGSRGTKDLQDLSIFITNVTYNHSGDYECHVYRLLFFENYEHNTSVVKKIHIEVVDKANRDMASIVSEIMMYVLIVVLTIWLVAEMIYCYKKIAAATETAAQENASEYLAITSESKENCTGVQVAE
# test-protocol: Inhibition of human Nav1.5/beta1/2 transfected in HEK293-A cells assessed as inhibition of channel current incubated for 5.5 mins by high-throughput electrophysiology system analysis
IC50 for assorted compounds
The reply should contain only the number, in µM.

{"molecule": "Cc1cn(-c2ccc(F)cc2)c2ccc(C(=O)NS(C)(=O)=O)cc12", "assay-target": "Sodium channel protein type 5 subunit alpha/beta-1/beta-2 (Homo sapiens)", "quantity-unit": "µM", "reported-result": 42}

Task: For Cc1cn(-c2cccc(F)c2)c2ccc(C(=O)NS(C)(=O)=O)cc12 , write its IC50.
Output: 35

Task: Kindly indicate its recorded IC50. Item: Cc1cn(-c2cccc(F)c2)c2cc(F)c(C(=O)NS(C)(=O)=O)cc12
Output: 31
